src = patent US20120316071A1

target_of_assay: T1, Recombinant Human DLL4 (delta-like protein 4) (human, UniProt Q9NR61 27-524)
T1 construct: Bought recombinant human DLL4 coated on the ELISA plate; also called rHuman DLL4
measurement_protocol: ELISA, DLL4 coated on plate, Fab at 25 nM (2-fold dilution series), absorbance at 450 nm
Assign class by ELISA signal: not lower than 0.6 means criterion met; lower than 0.6 means criterion not met.

Prompt: Quick check: does Fab VH5-51_IGHD5-18*01>3_IGHJ4*01 G100K/G104T G24L/S28R/G35V (KT LRV) & V3-4_IGLJ1*01 V91L/S96P S52T (Fab, V domains shown, Fab; Expressed in E. coli with CH1 (plasmid A, His6 and Flag tags) and lambda CL (plasmid E); also called G100K/G104T G24L/S28R/G35V & V91L/S96P S52T) VH: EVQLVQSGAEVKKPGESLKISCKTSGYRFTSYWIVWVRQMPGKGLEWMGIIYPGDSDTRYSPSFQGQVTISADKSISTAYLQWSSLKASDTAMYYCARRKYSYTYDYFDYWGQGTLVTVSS VL: QTVVTQEPSFSVSPGGTVTLTCGLSSGSVSTSYYPSWYQQTPGQAPRTLIYTTNTRSSGVPDRFSGSILGNKAALTITGAQADDESDYYCLLYMGPGISYVFGTGTKVTVL have ELISA signal greater than or equal to 0.6?
Response: criterion met

Prompt: Quick check: does Fab VH5-51_IGHD5-18*01>3_IGHJ4*01 G100K & V3-4_IGLJ1*01 (wildtype) (Fab, V domains shown, Fab; Expressed in E. coli with CH1 (plasmid A, His6 and Flag tags) and lambda CL (plasmid E); also called G100K & Wildtype) VH: EVQLVQSGAEVKKPGESLKISCKGSGYSFTSYWIGWVRQMPGKGLEWMGIIYPGDSDTRYSPSFQGQVTISADKSISTAYLQWSSLKASDTAMYYCARRKYSYGYDYFDYWGQGTLVTVSS VL: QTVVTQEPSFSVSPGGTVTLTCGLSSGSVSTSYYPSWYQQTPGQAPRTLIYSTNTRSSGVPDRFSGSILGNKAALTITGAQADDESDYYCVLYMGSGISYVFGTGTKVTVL have ELISA signal greater than or equal to 0.6?
Response: criterion not met

Prompt: Quick check: does Fab VH5-51_IGHD5-18*01>3_IGHJ4*01 G100K/G104T G24L/S28R/G35V (KT LRV) & V3-4_IGLJ1*01 V91L/S96P S52Q (Fab, V domains shown, Fab; Expressed in E. coli with CH1 (plasmid A, His6 and Flag tags) and lambda CL (plasmid E); also called G100K/G104T G24L/S28R/G35V & V91L/S96P S52Q) VH: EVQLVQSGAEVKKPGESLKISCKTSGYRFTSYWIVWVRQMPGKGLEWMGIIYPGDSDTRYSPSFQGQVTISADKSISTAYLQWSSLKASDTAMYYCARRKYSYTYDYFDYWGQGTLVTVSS VL: QTVVTQEPSFSVSPGGTVTLTCGLSSGSVSTSYYPSWYQQTPGQAPRTLIYQTNTRSSGVPDRFSGSILGNKAALTITGAQADDESDYYCLLYMGPGISYVFGTGTKVTVL have ELISA signal greater than or equal to 0.6?
Response: criterion met

Prompt: Quick check: does Fab VH5-51_IGHD5-18*01>3_IGHJ4*01 G100K/G104T G24A/S28R/G35V (KT ARV) & V3-4_IGLJ1*01 V91L/S96P S52H (Fab, V domains shown, Fab; Expressed in E. coli with CH1 (plasmid A, His6 and Flag tags) and lambda CL (plasmid E); Fab H:KT TRV & L:LP S52H; also called G100K/G104T G24A/S28R/G35V & V91L/S96P S52H) VH: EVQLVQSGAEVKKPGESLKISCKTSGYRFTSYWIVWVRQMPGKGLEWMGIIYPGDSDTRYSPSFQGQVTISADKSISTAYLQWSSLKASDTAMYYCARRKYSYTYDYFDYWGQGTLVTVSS VL: QTVVTQEPSFSVSPGGTVTLTCGLSSGSVSTSYYPSWYQQTPGQAPRTLIYHTNTRSSGVPDRFSGSILGNKAALTITGAQADDESDYYCLLYMGPGISYVFGTGTKVTVL have ELISA signal greater than or equal to 0.6?
Response: criterion met
